# assay.details: xn = mol fraction of the nth substance listed
# stated.conditions: 318.15 K; 101 kPa; Liquid; x1 = 0.6
compounds and their reported mass density
Form entry: value (kg/m3) — number only.

Worked examples, 4 compounds total:
CCCCCCCC(=O)OCC [ethyl octanoate] + CCO :: 830.77
CCCC(=O)OCCC(C)C [3-methylbutyl butanoate] + CCO :: 826.33
CCCCCC(=O)OCC [ethyl hexanoate] + CCO :: 830.79
CCOC(=O)Cc1ccccc1 [ethyl phenylacetate] + CCO :: 961.29

Continue with the next compound.
Please give the measured mass density for this compound: CCOC(=O)c1ccccc1 [ethyl benzoate] + CCO 968.93

---

# assay.details: xn = mol fraction of the nth substance listed
# stated.conditions: 318.15 K; 100.5 kPa; Liquid; x1 = 0.3
result.type: viscosity (mPa·s)
Form entry: value (mPa·s) — number only.

Worked examples, 5 compounds total:
CCCCCC(=O)OCC [ethyl hexanoate] + CCO :: 0.662
CC(=O)OCCC(C)C [3-methylbutyl ethanoate] + CCO :: 0.605
CCOC(=O)Cc1ccccc1 [ethyl phenylacetate] + CCO :: 0.971
CCCC(=O)OCCC(C)C [3-methylbutyl butanoate] + CCO :: 0.71
CCCCCCCC(=O)OCC [ethyl octanoate] + CCO :: 0.817

Continue with the next compound.
Please give the measured viscosity for this compound: CCOC(=O)c1ccccc1 [ethyl benzoate] + CCO 0.881

---

# assay.details: xn = mol fraction of the nth substance listed
# stated.conditions: 288.15 K; 101 kPa; Liquid; x1 = 0.55
result.type: mass density (kg/m3)
Form entry: value (kg/m3) — number only.

Please give the measured mass density for this compound: CCOC(=O)c1ccccc1 [ethyl benzoate] + CCO 988.43

---

# assay.details: xn = mol fraction of the nth substance listed
# stated.conditions: 288.15 K; 100.5 kPa; Liquid; x1 = 0.2
result.type: viscosity (mPa·s)
Form entry: value (mPa·s) — number only.

Worked examples, 5 compounds total:
CCCC(=O)OCCC(C)C [3-methylbutyl butanoate] + CCO :: 1.181
CCOC(=O)Cc1ccccc1 [ethyl phenylacetate] + CCO :: 1.513
CCOC(=O)c1ccccc1 [ethyl benzoate] + CCO :: 1.425
CCCCCC(=O)OCC [ethyl hexanoate] + CCO :: 1.106
CCCCCCCC(=O)OCC [ethyl octanoate] + CCO :: 1.32

Continue with the next compound.
Please give the measured viscosity for this compound: CC(=O)OCCC(C)C [3-methylbutyl ethanoate] + CCO 1.031

---

# assay.details: xn = mol fraction of the nth substance listed
# stated.conditions: 298.15 K; 101 kPa; Liquid; x1 = 0.65
result.type: mass density (kg/m3)
Form entry: value (kg/m3) — number only.

Worked examples, 2 compounds total:
CCOC(=O)Cc1ccccc1 [ethyl phenylacetate] + CCO :: 987.81
CCOC(=O)c1ccccc1 [ethyl benzoate] + CCO :: 996.46

Please give the measured mass density for this compound: CCCCCC(=O)OCC [ethyl hexanoate] + CCO 852.43

Please give the measured mass density for this compound: CCCC(=O)OCCC(C)C [3-methylbutyl butanoate] + CCO 847.05

Please give the measured mass density for this compound: CCCCCCCC(=O)OCC [ethyl octanoate] + CCO 850.77

---

# assay.details: xn = mol fraction of the nth substance listed
# stated.conditions: 298.15 K; 100.5 kPa; Liquid; x1 = 0.05
compounds and their reported viscosity
Form entry: value (mPa·s) — number only.

Worked examples, 5 compounds total:
CCCCCCCC(=O)OCC [ethyl octanoate] + CCO :: 1.094
CCOC(=O)Cc1ccccc1 [ethyl phenylacetate] + CCO :: 1.127
CC(=O)OCCC(C)C [3-methylbutyl ethanoate] + CCO :: 1.011
CCCCCC(=O)OCC [ethyl hexanoate] + CCO :: 1.031
CCCC(=O)OCCC(C)C [3-methylbutyl butanoate] + CCO :: 1.057

Continue with the next compound.
Please give the measured viscosity for this compound: CCOC(=O)c1ccccc1 [ethyl benzoate] + CCO 1.108

---

compounds and their reported viscosity
# assay.details: xn = mol fraction of the nth substance listed
# stated.conditions: 318.15 K; 100.5 kPa; Liquid; x1 = 0.2
Form entry: value (mPa·s) — number only.

CCCCCC(=O)OCC [ethyl hexanoate] + CCO :: 0.676

Please give the measured viscosity for this compound: CCCCCCCC(=O)OCC [ethyl octanoate] + CCO 0.791

Please give the measured viscosity for this compound: CCOC(=O)c1ccccc1 [ethyl benzoate] + CCO 0.833

---

compounds and their reported viscosity
# assay.details: xn = mol fraction of the nth substance listed
# stated.conditions: 288.15 K; 100.5 kPa; Liquid; x1 = 0.1
Form entry: value (mPa·s) — number only.

Worked examples, 3 compounds total:
CC(=O)OCCC(C)C [3-methylbutyl ethanoate] + CCO :: 1.133
CCCCCCCC(=O)OCC [ethyl octanoate] + CCO :: 1.299
CCOC(=O)Cc1ccccc1 [ethyl phenylacetate] + CCO :: 1.393

Please give the measured viscosity for this compound: CCOC(=O)c1ccccc1 [ethyl benzoate] + CCO 1.36

Please give the measured viscosity for this compound: CCCC(=O)OCCC(C)C [3-methylbutyl butanoate] + CCO 1.231

Please give the measured viscosity for this compound: CCCCCC(=O)OCC [ethyl hexanoate] + CCO 1.182

---

# assay.details: xn = mol fraction of the nth substance listed
# stated.conditions: 308.15 K; 100.5 kPa; Liquid; x1 = 0.9
result.type: viscosity (mPa·s)
Form entry: value (mPa·s) — number only.

Worked examples, 3 compounds total:
CCCCCCCC(=O)OCC [ethyl octanoate] + CCO :: 1.159
CCCCCC(=O)OCC [ethyl hexanoate] + CCO :: 0.803
CC(=O)OCCC(C)C [3-methylbutyl ethanoate] + CCO :: 0.697

Please give the measured viscosity for this compound: CCOC(=O)c1ccccc1 [ethyl benzoate] + CCO 1.521

Please give the measured viscosity for this compound: CCOC(=O)Cc1ccccc1 [ethyl phenylacetate] + CCO 1.847

Please give the measured viscosity for this compound: CCCC(=O)OCCC(C)C [3-methylbutyl butanoate] + CCO 0.929

---

compounds and their reported mass density
# assay.details: xn = mol fraction of the nth substance listed
# stated.conditions: 288.15 K; 101 kPa; Liquid; x1 = 0.3
± gives the expanded uncertainty stated by the source.
Please answer using the number first and the unit second.

Please give the measured mass density for this compound: CCCCCC(=O)OCC [ethyl hexanoate] + CCO 837.94 ± 0.21 kg/m3

---

# assay.details: xn = mol fraction of the nth substance listed
# stated.conditions: 288.15 K; 100.5 kPa; Liquid; x1 = 0.3
molecules and their reported viscosity
Form entry: value (mPa·s) — number only.

Please give the measured viscosity for this molecule: CCOC(=O)c1ccccc1 [ethyl benzoate] + CCO 1.51

Please give the measured viscosity for this molecule: CCOC(=O)Cc1ccccc1 [ethyl phenylacetate] + CCO 1.663

Please give the measured viscosity for this molecule: CCCCCC(=O)OCC [ethyl hexanoate] + CCO 1.062

---

# assay.details: xn = mol fraction of the nth substance listed
# stated.conditions: 308.15 K; 100.5 kPa; Liquid; x1 = 0.7
Returns satisfied if the recorded viscosity is greater than or equal to 0.8 mPa·s, and not satisfied otherwise.

Check out these entries, answers already filled in.
CCCCCCCC(=O)OCC [ethyl octanoate] + CCO :: satisfied
CCCC(=O)OCCC(C)C [3-methylbutyl butanoate] + CCO :: satisfied
CC(=O)OCCC(C)C [3-methylbutyl ethanoate] + CCO :: not satisfied

Given CCOC(=O)c1ccccc1 [ethyl benzoate] + CCO , state whether its viscosity is at least 0.8 mPa·s. satisfied

Given CCOC(=O)Cc1ccccc1 [ethyl phenylacetate] + CCO , state whether its viscosity is at least 0.8 mPa·s. satisfied

Given CCCCCC(=O)OCC [ethyl hexanoate] + CCO , state whether its viscosity is at least 0.8 mPa·s. not satisfied

---

compounds and their reported viscosity
# assay.details: xn = mol fraction of the nth substance listed
# stated.conditions: 288.15 K; 100.5 kPa; Liquid; x1 = 0.6
Form entry: value (mPa·s) — number only.

Worked examples, 3 compounds total:
CC(=O)OCCC(C)C [3-methylbutyl ethanoate] + CCO :: 0.907
CCCCCC(=O)OCC [ethyl hexanoate] + CCO :: 1.039
CCOC(=O)c1ccccc1 [ethyl benzoate] + CCO :: 1.833

Please give the measured viscosity for this compound: CCCCCCCC(=O)OCC [ethyl octanoate] + CCO 1.492

Please give the measured viscosity for this compound: CCCC(=O)OCCC(C)C [3-methylbutyl butanoate] + CCO 1.202

Please give the measured viscosity for this compound: CCOC(=O)Cc1ccccc1 [ethyl phenylacetate] + CCO 2.164

---

compounds and their reported viscosity
# assay.details: xn = mol fraction of the nth substance listed
# stated.conditions: 288.15 K; 100.5 kPa; Liquid; x1 = 0.5
Form entry: value (mPa·s) — number only.

Worked examples, 4 compounds total:
CCCC(=O)OCCC(C)C [3-methylbutyl butanoate] + CCO :: 1.183
CCOC(=O)c1ccccc1 [ethyl benzoate] + CCO :: 1.715
CCOC(=O)Cc1ccccc1 [ethyl phenylacetate] + CCO :: 1.989
CCCCCC(=O)OCC [ethyl hexanoate] + CCO :: 1.037

Please give the measured viscosity for this compound: CCCCCCCC(=O)OCC [ethyl octanoate] + CCO 1.443

Please give the measured viscosity for this compound: CC(=O)OCCC(C)C [3-methylbutyl ethanoate] + CCO 0.916
